target: hPPARα (Homo sapiens); assay: PPARα luciferase cell reporter assay (Indigo Biosciences); type: cell-based; details: 5 and 50 μM compound concentrations
Sequence (Q07869 whole entry): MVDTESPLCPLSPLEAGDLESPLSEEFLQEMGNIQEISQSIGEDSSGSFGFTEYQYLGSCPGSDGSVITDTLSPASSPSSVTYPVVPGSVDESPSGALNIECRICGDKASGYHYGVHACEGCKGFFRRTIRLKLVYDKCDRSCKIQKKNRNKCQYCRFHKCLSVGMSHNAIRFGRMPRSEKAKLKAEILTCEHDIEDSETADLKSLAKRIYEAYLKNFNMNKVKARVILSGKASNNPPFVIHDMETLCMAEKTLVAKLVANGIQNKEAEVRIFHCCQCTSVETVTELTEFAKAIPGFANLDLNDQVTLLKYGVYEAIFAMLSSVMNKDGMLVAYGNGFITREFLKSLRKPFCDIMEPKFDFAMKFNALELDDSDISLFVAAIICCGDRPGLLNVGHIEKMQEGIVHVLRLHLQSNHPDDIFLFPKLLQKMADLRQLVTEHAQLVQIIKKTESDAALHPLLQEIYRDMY
measuredEndpoint: ratio (5/50): ratio of relative light unit (RLU) signal at 5 and 50 μM

The following compounds have reported results that may help.
| smilesData | measurement |
| --- | --- |
| Cc1cc(CNc2cccc(C(=O)O)c2)ccc1OCc1cc(F)cc(F)c1 | 1.1 |
| O=C(O)c1cccc(NCc2ccc(OCc3ccc(F)cc3)c(Cl)c2)c1 | 1.1 |
| Cc1cc(CN(C)c2cccc(C(=O)O)c2)ccc1OCc1ccc(F)cc1 | 0.8 |

A = O=C(O)c1cc(F)cc(NCc2ccc(OCc3ccc(F)cc3)c(Cl)c2)c1
B = O=C(O)c1cccc(NCc2ccc(OCc3ccc(F)cc3)c(F)c2)c1
Input: Form field 'greater ratio (5/50): ratio of relative light unit (RLU) signal at 5 and 50 μM' accepts A or B ; which applies? Please identify the chosen entry by its label.
Output: A

Attribution: patent US12319708B2
